# Test system: SR leukemia
# Protocol text: NCI tumour cell line growth inhibition, 48 h
Value type: TGI (µM)
The response must be a number in µM with no trailing unit.

In plain terms, "Cc1cc(-c2nc3ccc(F)cc3s2)ccc1NC(=O)[C@H](C)N" has a documented TGI of 5.65

In plain terms, "Cc1nnc(NC(=O)c2nc(S(=O)(=O)Cc3ccc(F)cc3)ncc2Cl)s1" has a documented TGI of 3.55

----------
Assign TGI to each entry below.
# Tested on: BT-549 breast
# Protocol text: NCI tumour cell line growth inhibition, 48 h

In plain terms, "Nc1nc2c(c(-c3cccc(Cl)c3)n1)COC/C2=C\c1cccc(Cl)c1" has a documented TGI of > 100 µM

In plain terms, "Oc1ccc2c(c1)c1c(n2CCN2CCOCC2)-c2ccccc2CC1" has a documented TGI of > 100 µM

In plain terms, "COc1ccc(CCN=C2NC(=O)/C(=C/c3ccc4ncccc4c3)S2)cc1" has a documented TGI of > 25 µM

In plain terms, "O=C1CN(c2cccc(Cl)c2)C(=O)CN1CCN1CC(=O)N(c2cccc(Cl)c2)CC1=O" has a documented TGI of > 100 µM

----------
# System: HCC-2998 colon
# Protocol text: NCI tumour cell line growth inhibition, 48 h
Value type: TGI

In plain terms, Nc1ccccc1SC(CC(=O)c1ccccc1)c1cccc([N+](=O)[O-])c1 (stereo not drawn) has a documented TGI of 31.3 µM

In plain terms, C/C(=C\CBr)CCC(Br)C(C)(C)Br (stereo not drawn) has a documented TGI of > 100 µM

In plain terms, "NS(=O)(=O)c1nnc(NC(=O)Nc2ccc(Cl)c(Cl)c2)s1" has a documented TGI of 34.8 µM

----------
Assign TGI to each entry below.
# Test system: SW-620 colon
# Protocol text: NCI tumour cell line growth inhibition, 48 h

In plain terms, "Nc1nc2c(c(-c3cccc(Cl)c3)n1)COC/C2=C\c1cccc(Cl)c1" has a documented TGI of > 100 µM

In plain terms, C(=C(c1ccc(OC2CCCCO2)cc1)c1ccc(OC2CCCCO2)cc1)c1ccccc1 (configuration not stated) has a documented TGI of 1.62 µM

In plain terms, C/C(=C\CBr)CCC(Br)C(C)(C)Br (configuration not stated) has a documented TGI of > 100 µM

In plain terms, "Nn1c(Nc2ccc(S(=O)(=O)Nc3ncccn3)cc2)nnc(/C=C/c2c(O)ccc3ccccc23)c1=O" has a documented TGI of > 100 µM

In plain terms, Nc1n[nH]c2cc(F)c([C@@H]3Nc4ccc5[nH]ncc5c4[C@H]4C5CCC(C5)[C@@H]34)cc12 (some centres not stated) has a documented TGI of > 25 µM

In plain terms, "COc1ccc(CN2C(=O)/C(=C\c3cc(OC)c(OC)c(OC)c3)c3ccccc32)cc1" has a documented TGI of 4.85 µM

In plain terms, "O=[N+]([O-])c1cc(C=NC23CC4CC(CC(C4)C2)C3)ccc1Cl" has a documented TGI of 27.7 µM

In plain terms, "NS(=O)(=O)c1nnc(NC(=O)Nc2ccc(Cl)c(Cl)c2)s1" has a documented TGI of > 100 µM

In plain terms, "Cc1nnc(NC(=O)c2nc(S(=O)(=O)Cc3ccc(F)cc3)ncc2Cl)s1" has a documented TGI of 3.25 µM

In plain terms, S=c1sc2c(n1-c1ccccc1)NC=NC2S (configuration not stated) has a documented TGI of > 100 µM

In plain terms, "N#Cc1c[nH]n2c(N=Nc3ccc(Cl)cc3)c(O)nc12" has a documented TGI of > 100 µM

In plain terms, "CN(C)CCn1c2c3ccccc3ccc2c2oc(=O)c3ccccc3c21" has a documented TGI of 32.4 µM

In plain terms, COc1cccc(C2SC(N)=Nc3c2c(C)nn3C(=O)c2ccccc2O)c1 (configuration not stated) has a documented TGI of > 10 µM

In plain terms, "Cc1ccccc1C(=N)c1ccccc1Cc1cccc2ccccc12" has a documented TGI of 66 µM

In plain terms, "CC1=Nc2ccccc2OC(C)=C1N=Nc1ccc2nc(C)[nH]c2c1" has a documented TGI of > 100 µM

In plain terms, COc1ccc(C2[C@@H](c3ccccc3)C(=O)N2c2cc(OC)c(OC)c(OC)c2)cc1F (some centres not stated) has a documented TGI of > 100 µM

In plain terms, "O=c1[nH]c(=S)[nH]c2c1C(c1ccc([N+](=O)[O-])cc1)c1c([nH]c(=S)[nH]c1=O)O2" has a documented TGI of > 100 µM

In plain terms, CCC(=O)NCC1CCCN2CCCCC12 (configuration not stated) has a documented TGI of > 100 µM

In plain terms, "COc1cc(/C(C#N)=C/c2nc3c(N4CCOCC4)nc(Cl)nc3n2C)cc(OC)c1OC" has a documented TGI of > 100 µM

In plain terms, "c1ccc(NCn2cnc3ccccc32)cc1" has a documented TGI of > 100 µM

In plain terms, "O=C(/C=C/c1ccc(O)cc1)c1ccc(O)cc1" has a documented TGI of 57.9 µM

In plain terms, "O=C(c1ccccn1)C1(N2CCCCC2)CCCCC1" has a documented TGI of > 100 µM

In plain terms, "Nc1c(S(=O)(=O)O)cc2cc(S(=O)(=O)O)ccc2c1N=Nc1ccc(-c2ccc(N=Nc3c(N)c(S(=O)(=O)O)cc4cc(S(=O)(=O)O)ccc34)c(S(=O)(=O)O)c2)cc1" has a documented TGI of > 100 µM

In plain terms, "Oc1ccc2c(c1)c1c(n2CCN2CCOCC2)-c2ccccc2CC1" has a documented TGI of > 100 µM

In plain terms, "O=C(/C=C/c1ccc2c(c1)OCO2)Cc1nc2ncccc2[nH]c1=O" has a documented TGI of > 100 µM

In plain terms, "C[C@]12CC[C@H](O)CC1=CC[C@@H]1[C@@H]2CC[C@]2(C)C(=N/N)/C(=N\O)C[C@@H]12" has a documented TGI of > 100 µM

In plain terms, "O=C1CN(c2cccc(Cl)c2)C(=O)CN1CCN1CC(=O)N(c2cccc(Cl)c2)CC1=O" has a documented TGI of > 100 µM

Where do the numbers come from? From PubChem BioAssay (NCI).
